# growth inhibition per entry
- Procedure details: NCI Yeast Anticancer Drug Screen. Data for the bub3 strain (AID 167)
- Cond: S. cerevisiae bub3 mutant strain, at 5.0 µM (retest, dose inferred, filed as 0.5), active compounds read high
The panel holds about 79,000 compounds, 15% with a hit somewhere; the sample as a whole holds those more often.
Report the figure in % without appending any unit label.

Field: example entries. Status: answers known.
- Record smiles: "Cc1cc2c(cc1C)C(=O)OC2=O"
  Experimental endpoint: "growth inhibition"
  Recorded measurement: -3
- Record smiles: "Cc1ccc2c(c1)-c1cc(C)ccc1C2(O)c1ccccc1"
  Experimental endpoint: "growth inhibition"
  Recorded measurement: 3

Here's the next entry for you.
Sample O=C1C=CC(=O)N1CCc1ccccc1 — what was its growth inhibition?
-45

* * *

# growth inhibition per entry
- Procedure details: NCI Yeast Anticancer Drug Screen. Data for the sgs1 mgt1 strain (AID 161);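 also: 0% = growth of cultures given vehicle only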
- Cond: S. cerevisiae sgs1 mgt1 strain, at 50.0 µM (retest, dose inferred, filed as 5.0), active compounds read high
This is part of a sample that, as a whole, favours compounds with a hit. Of some 79,000 tested, about 15% had one in any assay.
Report the figure in % without appending any unit label.

- Molecule: "CCCC/C=C1\\CCC(CN2CCOCC2)C1=O (centres undefined)"
  Unit abbreviation: "%"
  growth inhibition: 100
- Molecule: "COC12C=CC(CC1)c1c2c(O)c2ccncc2c1O (centres undefined)"
  Unit abbreviation: "%"
  growth inhibition: 87

Sample CCOC(=O)Cc1nc2ccccc2s1 — what was its growth inhibition?
99

What do you have for Cc1ccc(S(=O)(=O)S/C(=N\c2ccccn2)Nc2ccccn2)cc1 ?
5

What do you have for CC(C)OP(=O)(OC(C)C)/C(=N/Nc1ccc([N+](=O)[O-])cc1)NNC(=O)c1ccccc1 ?
53

* * *

- Procedure details: NCI Yeast Anticancer Drug Screen. Data for the rad50 strain (AID 155);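 also: 0% = growth of vehicle-only cultures of the same strain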
- Cond: S. cerevisiae rad50 strain growth inhibition; at 50.0 µM; active compounds read high
This is part of a sample that, as a whole, favours compounds with a hit. Of some 79,000 tested, about 15% had one in any assay.
Experimental endpoint: growth inhibition (%)
Report the figure in % without appending any unit label.

Field: example entries. Status: answers known.
- Compound: "O=c1c(O)cc2c(O)oc3c(=O)c(O)c(O)c4c(O)oc1c2c43"
  Experimental endpoint: "growth inhibition"
  Unit abbreviation: "%"
  Recorded measurement: 88.4
- Compound: "CNC(=O)OCc1c(COC(=O)NC)c(-c2ccc(Cl)c(Cl)c2)n2c1Cc1ccccc1C2"
  Experimental endpoint: "growth inhibition"
  Unit abbreviation: "%"
  Recorded measurement: 88.7
- Compound: "CC(C)c1ccc2c(c1)CC[C@H]1[C@](C)(C(=O)O)CCC[C@]21C"
  Experimental endpoint: "growth inhibition"
  Unit abbreviation: "%"
  Recorded measurement: 91.6
- Compound: "CC(Cc1ccccc1)N1C(=O)C=CC1=O (configuration not stated)"
  Experimental endpoint: "growth inhibition"
  Unit abbreviation: "%"
  Recorded measurement: 91.8
- Compound: "C=C1C(=O)OC2CC3(C)CC(O)C(O)C(=C)C3CC12 (configuration not stated)"
  Experimental endpoint: "growth inhibition"
  Unit abbreviation: "%"
  Recorded measurement: 91.2

Sample CN(C)c1ccccc1[CH2][Ga]([Cl])[CH2]c1ccccc1N(C)C — what was its growth inhibition?
88.9

What do you have for CCOC(=O)c1cnn(-c2ccccc2)c1N ?
88.8
